# Tested on: HCV genotype 1b (Con1) replicon in HUH-7 cells
# ASSAY_NAME: HCV replicon luciferase reporter assay, genotype 1b
# Format: cell-based
# PROTOCOL_CONDITIONS: Hepatitis C virus, Huh-7, 72 h, HCV genotype 1b replicon luciferase, 3 days incubation, read-out: LE_1b (EC50, range)
pEC50: −log10 of the molar value.
In this section, each of the compounds is paired with its reported pEC50.
OBSERVED_PROPERTY: pEC50

{"columns": ["SUBSTANCE_SMILES", "OBSERVED_PROPERTY", "RESULT"],
 "data": [
  ["CCOc1ccc2c(O[C@@H]3C[C@H]4C(=O)N[C@]5(C(=O)NS(=O)(=O)C6(CF)CC6)C[C@H]5/C=C\\CC[C@@H](C)C[C@@H](C)[C@H](NC(=O)OC(C)(C)C(C)(F)F)C(=O)N4C3)nccc2c1", "pEC50", "9.00 to 9.29"],
  ["COc1ccc2nc(OC)c(O[C@@H]3C[C@H]4C(=O)N[C@]5(C(=O)NS(=O)(=O)C6(CF)CC6)C[C@H]5/C=C\\CC[C@@H](C)C[C@@H](C)[C@H](NC(=O)OC(C)(C)C)C(=O)N4C3)cc2c1", "pEC50", "9.30 to 10.00"],
  ["COc1ccc2c(O[C@@H]3C[C@H]4C(=O)N[C@]5(C(=O)NS(=O)(=O)C6(F)CC6)C[C@H]5/C=C\\CC[C@@H](C)C[C@@H](C)[C@H](NC(=O)OCC5(C)CC5)C(=O)N4C3)nccc2c1", "pEC50", "> 8.26"],
  ["[2H]C([2H])([2H])C(OC(=O)N[C@@H]1C(=O)N2C[C@H](Oc3nccc4cc(OC)c(F)cc34)C[C@H]2C(=O)N[C@]2(C(=O)NS(=O)(=O)C3(C)CC3)C[C@H]2/C=C\\CC[C@@H](C)C[C@H]1CC)(C([2H])([2H])[2H])C(F)(F)F", "pEC50", "8.30 to 9.00"]
]}

---

# Test system: HCV genotype 1b (Con1) replicon in HUH-7 cells
# ASSAY_NAME: HCV replicon luciferase reporter assay, genotype 1b
# Format: cell-based
# PROTOCOL_CONDITIONS: Hepatitis C virus, Huh-7, 72 h, HCV genotype 1b replicon luciferase, 3 days incubation, read-out: LE_1b (EC50, range)
pEC50: −log10 of the molar value.
In this section, each of the compounds is paired with its reported pEC50.

{"columns": ["SUBSTANCE_SMILES", "pEC50"],
 "data": [
  ["CCOc1ccc2c(O[C@@H]3C[C@H]4C(=O)N[C@]5(C(=O)NS(=O)(=O)C6CC6)C[C@H]5/C=C\\CC[C@@H](C)C[C@@H](CC)[C@H](NC(=O)OC(C)(C)C(F)(F)F)C(=O)N4C3)nccc2c1", "9.00 to 9.29"],
  ["C[C@@H]1CC/C=C\\[C@@H]2C[C@@]2(C(=O)NS(=O)(=O)C2CC2)NC(=O)[C@@H]2C[C@@H](Oc3ncc(OCC4CC4)c4ccc(F)cc34)CN2C(=O)[C@@H](NC(=O)OC(C)(C)C)[C@H](C)C1", "> 8.26"],
  ["CCn1nc(O[C@@H]2C[C@H]3C(=O)N[C@]4(C(=O)NS(=O)(=O)C5CC5)C[C@H]4/C=C\\CC[C@@H](C)C[C@@H](C)[C@H](NC(=O)NC(C)(C)C)C(=O)N3C2)c2ccccc2c1=O", "6.99 to 8.32"],
  ["CCOc1cc2ccnc(O[C@@H]3C[C@H]4C(=O)N[C@]5(C(=O)NS(=O)(=O)C6(C)CC6)C[C@H]5/C=C\\CC[C@@H](C)C[C@@H](C)[C@H](NC(=O)OC(C)(C)C(F)(F)F)C(=O)N4C3)c2cc1F", "9.00 to 9.29"],
  ["COc1cnc(O[C@@H]2C[C@H]3C(=O)N[C@]4(C(=O)NS(=O)(=O)C5(F)CC5)C[C@H]4/C=C\\CC[C@@H](C)C[C@@H](C)[C@H](NC(=O)OC(C)(C)C)C(=O)N3C2)c2cc(F)ccc12", "> 8.26"],
  ["CC[C@@H]1C[C@H](C)CC/C=C\\[C@@H]2C[C@@]2(C(=O)NS(=O)(=O)C2CC2)NC(=O)[C@@H]2C[C@@H](Oc3ncc(OC)c4ccccc34)CN2C(=O)[C@H]1NC(=O)OC(C)(C)C(F)F", "9.30 to 10.00"],
  ["CC[C@@H]1C[C@H](C)CC/C=C\\[C@@H]2C[C@@]2(C(=O)NS(=O)(=O)C2(C)CC2)NC(=O)[C@@H]2C[C@@H](Oc3nccc4c5c(ccc34)OCCO5)CN2C(=O)[C@H]1NC(=O)OC(C)(C)C", "> 8.26"],
  ["COc1ccc2c(O[C@@H]3C[C@H]4C(=O)N[C@]5(C(=O)NS(=O)(=O)C6(F)CC6)C[C@H]5/C=C\\CC[C@@H](C)C[C@@H](C)[C@H](NC(=O)OC5CCCC5)C(=O)N4C3)nccc2c1", "> 8.26"],
  ["CCOc1nnc(O[C@@H]2C[C@H]3C(=O)N[C@]4(C(=O)NS(=O)(=O)C5CC5)C[C@H]4/C=C\\CC[C@@H](C)C[C@@H](CC)[C@H](NC(=O)OC(C)(C)C)C(=O)N3C2)c2ccccc12", "> 8.26"]
]}

---

# Test system: HCV genotype 1b (Con1) replicon in HUH-7 cells
# ASSAY_NAME: HCV replicon luciferase reporter assay, genotype 1b
# Format: cell-based
# PROTOCOL_CONDITIONS: Hepatitis C virus, Huh-7, 72 h, HCV genotype 1b replicon luciferase, 3 days incubation, read-out: LE_1b (EC50, range)
OBSERVED_PROPERTY: EC50

{"columns": ["COMPOUND", "OBSERVED_PROPERTY", "RESULT"],
 "data": [
  ["[2H]C([2H])([2H])C(OC(=O)N[C@@H]1C(=O)N2C[C@H](Oc3nnc(OCC)c4ccccc34)C[C@H]2C(=O)N[C@]2(C(=O)NS(=O)(=O)C3(C)CC3)C[C@H]2/C=C\\CC[C@H](C)C[C@H]1C)(C([2H])([2H])[2H])C(F)(F)F", "EC50", "4.82 to 103 nM"],
  ["CC1CC/C=C\\[C@@H]2C[C@@]2(C(=O)NS(=O)(=O)C2(CF)CC2)NC(=O)[C@@H]2C[C@@H](Oc3nccc4c5c(ccc34)OCCO5)CN2C(=O)[C@@H](NC(=O)OC(C)(C)C)[C@H](C)C1 (stereo in doubt)", "EC50", "< 5.46 nM"],
  ["C[C@@H]1CC/C=C\\[C@@H]2C[C@@]2(C(=O)NS(=O)(=O)C2(C)CC2)NC(=O)[C@@H]2C[C@@H](Oc3ncc(N4CCOCC4)c4ccccc34)CN2C(=O)[C@@H](NC(=O)OC(C)(C)C(C)(F)F)[C@H](C)C1", "EC50", "1.01 to 5 nM"],
  ["CC[C@@H]1C[C@H](C)CC/C=C\\[C@@H]2C[C@@]2(C(=O)NS(=O)(=O)C2CC2)NC(=O)[C@@H]2C[C@@H](Oc3nc4cc(OC)c(F)cc4nc3C(F)(F)F)CN2C(=O)[C@H]1NC(=O)OC(C)(C)C", "EC50", "1.01 to 5 nM"],
  ["CC[C@@H]1C[C@H](C)CC/C=C\\[C@@H]2C[C@@]2(C(=O)NS(=O)(=O)C2(CF)CC2)NC(=O)[C@@H]2C[C@@H](Oc3nccc4c5c(ccc34)OCCO5)CN2C(=O)[C@H]1NC(=O)OC(C)(C)C", "EC50", "1.01 to 5 nM"],
  ["CCn1nc(O[C@@H]2C[C@H]3C(=O)N[C@]4(C(=O)NS(=O)(=O)C5CC5)C[C@H]4/C=C\\CC[C@H](C)C[C@@H](C)[C@H](NC(=O)c4ccc(N(C)C)cc4)C(=O)N3C2)c2ccccc2c1=O", "EC50", "> 87.4 nM"],
  ["C[C@@H]1CC/C=C\\[C@@H]2C[C@@]2(C(=O)NS(=O)(=O)C2(C)CC2)NC(=O)[C@@H]2C[C@@H](Oc3ncc(N4CCOCC4)c4ccccc34)CN2C(=O)[C@@H](NC(=O)OC(C)(C)C(F)(F)F)[C@H](C)C1", "EC50", "0.51 to 1 nM"],
  ["COc1ccc2c(O[C@@H]3C[C@H]4C(=O)N[C@]5(C(=O)NS(=O)(=O)C6(C)CC6)C[C@H]5/C=C\\CC[C@@H](C)C[C@@H](C)[C@H](NC(=O)OC(C)(C)C)C(=O)N4C3)ncnc2c1", "EC50", "< 5.46 nM"]
]}

---

# Test system: HCV genotype 1b (Con1) replicon in HUH-7 cells
# ASSAY_NAME: HCV replicon luciferase reporter assay, genotype 1b
# Type: cell-based
# PROTOCOL_CONDITIONS: Hepatitis C virus, Huh-7, 72 h, HCV genotype 1b replicon luciferase, 3 days incubation, read-out: LE_1b (EC50, range)
In this section, each of the compounds is paired with its reported EC50.

{"columns": ["SUBSTANCE_SMILES", "ASSAYED_TARGET", "EC50"],
 "data": [
  ["COc1nnc(O[C@@H]2C[C@H]3C(=O)N[C@]4(C(=O)NS(=O)(=O)C5CC5)C[C@H]4/C=C\\CC[C@@H](C)C[C@@H](C)[C@H](NC(=O)OC(C)(C)C)C(=O)N3C2)c2ccccc12", "HCV genotype 1b (Con1) replicon in HUH-7 cells", "< 5.46 nM"],
  ["COc1ccc2c(O[C@@H]3C[C@H]4C(=O)N[C@]5(C(=O)NS(=O)(=O)C6CC6)C[C@H]5/C=C\\CC[C@H](C)C[C@@H](C)[C@H](NC(=O)OC(C)(C)C(F)(F)F)C(=O)N4C3)nc(-c3ccccc3)cc2c1", "HCV genotype 1b (Con1) replicon in HUH-7 cells", "< 5.46 nM"],
  ["CCOc1nnc(O[C@@H]2C[C@H]3C(=O)N[C@]4(C(=O)NS(=O)(=O)C5CC5)C[C@H]4/C=C\\CC[C@H](C)C[C@@H](C)[C@H](NC(=O)OC(C)(C)C(F)(F)F)C(=O)N3C2)c2ccccc12", "HCV genotype 1b (Con1) replicon in HUH-7 cells", "4.82 to 103 nM"],
  ["COc1ccc2c(O[C@@H]3C[C@H]4C(=O)N[C@]5(C(=O)NS(=O)(=O)C6(C)CC6)C[C@H]5/C=C\\CC[C@@H](C)C[C@@H](C)[C@H](NC(=O)OC(C)(C)C)C(=O)N4C3)ncc(F)c2c1", "HCV genotype 1b (Con1) replicon in HUH-7 cells", "0.1 to 0.5 nM"],
  ["C[C@H]1CC/C=C\\[C@@H]2C[C@@]2(C(=O)NS(=O)(=O)C2CC2)NC(=O)[C@@H]2C[C@@H](Oc3nccc4c5c(ccc34)N(C)CCO5)CN2C(=O)[C@@H](NC(=O)OC(C)(C)C(F)(F)F)[C@H](C)C1", "HCV genotype 1b (Con1) replicon in HUH-7 cells", "< 5.46 nM"],
  ["CCn1nc(O[C@@H]2C[C@H]3C(=O)N[C@]4(C(=O)NS(=O)(=O)C5(C)CC5)C[C@H]4/C=C\\CC[C@H](C)C[C@@H](C)[C@H](NC(=O)OC(C)(C)C)C(=O)N3C2)c2ccccc2c1=O", "HCV genotype 1b (Con1) replicon in HUH-7 cells", "4.82 to 103 nM"],
  ["CC[C@@H]1C[C@H](C)CC/C=C\\[C@@H]2C[C@@]2(C(=O)NS(=O)(=O)C2(C)CC2)NC(=O)[C@@H]2C[C@@H](Oc3nccc4cc(OC)ccc34)CN2C(=O)[C@H]1NC(=O)OC(C)(C)C(F)F", "HCV genotype 1b (Con1) replicon in HUH-7 cells", "0.51 to 1 nM"],
  ["C[C@@H]1CC/C=C\\[C@@H]2C[C@@]2(C(=O)NS(=O)(=O)C2(CF)CC2)NC(=O)[C@@H]2C[C@@H](Oc3ncc(N4CCOCC4)c4ccccc34)CN2C(=O)[C@@H](NC(=O)OC(C)(C)C)[C@H](C)C1", "HCV genotype 1b (Con1) replicon in HUH-7 cells", "0.51 to 1 nM"],
  ["C[C@@H]1CC/C=C\\[C@@H]2C[C@@]2(C(=O)NS(=O)(=O)C2(C)CC2)NC(=O)[C@@H]2C[C@@H](Oc3nccc4c5c(ccc34)OCCO5)CN2C(=O)[C@@H](NC(=O)O[C@@H]2C[C@@H]3C[C@@H]3C2)[C@H](C)C1", "HCV genotype 1b (Con1) replicon in HUH-7 cells", "< 5.46 nM"]
]}
